assay: activity coefficient (dimensionless); of the first substance listed, at infinite dilution; xn = mol fraction of the nth substance listed; settings: 328.15 K; Liquid; Chromatography; x1 = 0
readout: activity coefficient
// response body must contain only the number

Examples from the recorded data:
# compound, quantitativeResult
records = [
    ("Cc1ccccc1 [toluene] + CCCCCCn1cc[n+](C)c1.N#C[B-](C#N)(C#N)C#N", 0.993),
    ("CCCOCCC [dipropyl ether] + CCCCCCn1cc[n+](C)c1.N#C[B-](C#N)(C#N)C#N", 3.77),
    ("CCOCC [diethyl ether] + CCCCCCn1cc[n+](C)c1.N#C[B-](C#N)(C#N)C#N", 1.62),
    ("CCC(C)O (stereo not given) [butan-2-ol] + CCCCCCn1cc[n+](C)c1.N#C[B-](C#N)(C#N)C#N", 1.17),
]

From here, focus on the item given below.
Q: Assign activity coefficient to the following record: c1ccncc1 [pyridine] + CCCCCCn1cc[n+](C)c1.N#C[B-](C#N)(C#N)C#N
A: 0.389
